Numbers sourced from PubChem BioAssay (NCI).

System: SR leukemia
Test: NCI tumour cell line growth inhibition, 48 h
The following compounds are shown together with reported TGI values.

// TGI lookup, key: Cn1cc(C2=C(c3cn(CCCCCO)c4ccccc34)C(=O)NC2=O)c2ccccc21
11 µM

---

Tested on: KM20L2 colon
Assay: NCI tumour cell line growth inhibition, 48 h
measurement_kind: TGI

Some molecules with recorded TGI:
molecule | measured
O=C(O)CCN(CCCN(CCC(=O)O)CCC(=O)O)CCC(=O)O | > 100 µM
O=C(O)CN(c1ccc(F)cc1)S(=O)(=O)c1ccccc1 | > 100 µM
CCCCCCCCCCCCSC(=S)c1c(C)[nH]n(CCCCCCCCCCCC)c1=O | > 100 µM
CC(C)c1ccc(/C=C/c2cc(C(=O)NNC(=O)NC3CCCCC3)nc(=S)[nH]2)cc1 | > 100 µM
CC[PH+](CC)CC.CC[PH+](CC)CC.[Au] | 33.3 µM

Notebook entry, KM20L2 colon assay: TGI of COC(=O)C(=O)C(/C(=N/N)C(=O)Nc1ccccc1C(N)=O)c1nc2ccc([N+](=O)[O-])cc2[nH]c1=O (stereo unspecified) = ?
> 100 µM

Next molecule up: c1ccc2c(CNCCCCCCCCNCc3cccc4ccccc34)cccc2c1
3.22 µM

Then this molecule: COc1ccc(N=Cc2ccc(N(CCC#N)S(=O)(=O)c3ccccc3)cc2C)cc1
> 100 µM

Do the same for COc1cc(CNc2cnc3ccc(N)cc3n2)cc(OC)c1OC please
> 100 µM

Repeat for the following molecule: CC(=O)NC1COC(COC(=O)CCCCCCCCCCNC(=O)c2ccc([N+](=O)[O-])c3c(=O)c4ccccc4[nH]c23)C(O)C1OC(C)C(=O)NC(C(=O)NC(CCC(N)=O)C(=O)OCc1ccccc1)C(C)C (stereo unspecified)
33.5 µM

What do we get for Cc1ccc(C(=O)NCCN(C)C)c2nc3ccccc3cc12 ?
6 µM

What about CC1=C(C(=O)CC(=O)C(=O)Nc2ccc(C)c(C)c2)Sc2ccccc2N1 ?
> 100 µM

---

The entries below are paired with their reported TGI.
Tested on: HCT-15 colon
Assay: NCI tumour cell line growth inhibition, 48 h
State just the number; it will be interpreted in µM.

Observed TGI on HCT-15 colon for CN(C)CCOc1ccccc1NC1=C(Cl)C(=O)C(Nc2ccccc2OCCN(C)C)=C(Cl)C1=O , please.
2.61

Now try NC(=O)CCSC(CC(=O)c1ccc(Cl)cc1)c1ccc(Cl)cc1 (stereo unspecified) .
31.5

Also CC1(C)CCCCCCCCCC2CC2CCC(C)(C)C1=O (stereo unspecified) ?
30.1

---

System: NCI-H522 lung
Assay: NCI tumour cell line growth inhibition, 48 h; in the data active = GI50 below about 0.43 µM; inactive = the rest
The reply should name one outcome from y for active, n for inactive

structure_smiles_string | category_label
CC(=O)N[C@@H](Cc1ccc(OP(=O)(O)O)cc1)C(=O)N[C@H]1CCC(=O)N2CCC[C@@H](C(=O)NCc3ccccc3)N2C1=O | n
CCOC(=O)c1cc(NS(=O)(=O)c2ccc(C)cc2)cc(C(=O)OCC)c1 | n
O=S(=O)(NCCCNc1cc(-c2cn(-c3ccccc3)nc2-c2cccc(O)c2)ccn1)c1ccc(Br)cc1 | n

Entry Cc1cccc(Cl)c1NC(=O)c1cnc(Nc2cc(N3CCOCC3)cc(S(C)(=O)=O)c2)s1 : call = ?
y

---

Consider the following compounds and their measured TGI readings.
System: KM12 colon
Experiment: NCI tumour cell line growth inhibition, 48 h

compound | TGI
CC(C)C(Sc1nc(-c2ccccc2)c(-c2ccccc2)[nH]1)c1n[nH]c(=S)n1-c1ccccc1 (configuration not stated) | 30.5 µM

Using the record for CCCN(CCC)c1ccc(C=O)c(C)c1 , report its TGI.
> 100 µM

Do the same for Cc1c2c(nn1-c1ccc(S(=O)(=O)NC(=S)NC(=O)c3ccccc3)cc1)-c1ccccc1CC2 please
> 100 µM

Same for Cc1[nH]nc2ncc(C(=O)N3CCC[C@H]3c3ccc(Cl)cc3)cc12
> 100 µM

Another compound: O=c1[nH]c2c(c(=O)[nH]1)C(c1ccc([N+](=O)[O-])cc1)c1c([nH]c(=O)[nH]c1=O)O2
> 100 µM

---

Test system: K-562 leukemia
Test: NCI tumour cell line growth inhibition, 48 h
In this section, each of the molecules is paired with its reported TGI.

Worked cases, TGI given:
molecule | TGI
O=C(O)C12CCC(CC1=O)C2 (stereo not drawn) | > 100 µM
CN1C(=O)C2(c3ccccc31)C1CC3C(CO1)C1C2C3(CO)CN1C#N (stereo not drawn) | > 100 µM
Oc1ccccc1/C=N\NC(=S)N/N=C/c1ccccc1O | > 100 µM

I'd like to know its TGI. The molecule in question is CC1=N[C@@](C)(C2CC3C=CC2C3=O)COC1=O (stereo partly drawn)
> 100 µM

Query O=[N+]([O-])C=C1c2ccccc2-c2ccccc21 next
6.34 µM

Same read-out for CCN(CC)Cc1cc(Nc2ccnc3ccc4nn(C)nc4c23)ccc1O ?
> 100 µM

Same read-out for COc1cc(CCNC(=O)OC(C)(C)C)c2c(c1OC)SSSSS2 ?
21.3 µM

Here is the next molecule: CC[PH+](CC)CC.CC[PH+](CC)CC.[Au]
41.1 µM

And CC(=O)N[C@@H](Cc1ccc(OP(=O)(O)O)cc1)C(=O)N[C@H]1CCC(=O)N2CCC[C@@H](C(=O)NCc3ccccc3)N2C1=O ?
> 25 µM

---

Tested on: NCI-H226 lung
Experiment: NCI tumour cell line growth inhibition, 48 h
measurement_kind: TGI

structure_smiles_string | TGI
O=C(Nc1cccc(C(=O)NCCCO)c1)/C(=C/c1ccccc1)NC(=O)c1ccccc1 | > 100 µM
O=C(NCCCN(CCCCN(CCCNC(=O)c1cc(S(=O)(=O)O)cc(O)c1O)C(=O)c1cc(S(=O)(=O)O)cc(O)c1O)C(=O)c1cc(S(=O)(=O)O)cc(O)c1O)c1cc(S(=O)(=O)O)cc(O)c1O | > 100 µM
COc1ccc2c(c1OC)C(=O)N/C2=C\c1c(CCN(C)C)cc2c(c1OC)OCO2 | > 100 µM

Then there is this compound:
Using the record for O=[N+]([O-])/C(Cl)=C/C(=C1/Nc2ccccc2O1)[N+](=O)[O-] , report its TGI.
79.3 µM

---

System: MOLT-4 leukemia
Experiment: NCI tumour cell line growth inhibition, 48 h
Consider the following compounds and their measured TGI readings.
Only the number, expressed in µM, is required.

compound | TGI [µM]
CCCCCCCCCCCCCCCCCC(=O)OCC1OC(OC)C(NC(=O)N(CCCl)N=O)C(O)C1O (configuration not stated) | 57.3
CC1=CC(=O)N(n2c(Cc3ccc(Cl)cc3)n[nH]c2=O)C1=O | 47.4
O=[N+]([O-])/C(Cl)=C/C(=C1/Nc2ccccc2O1)[N+](=O)[O-] | 87.2

Here is the next item to consider.
# returns recorded TGI (system: MOLT-4 leukemia) for COc1cc2nc3cc([N+](=O)[O-])ccc3c(NCCNCC(C)O)c2cc1OC (configuration not stated)
6.21

---

Below, each entry is listed alongside its reported TGI.
System: OVCAR-8 ovarian
Assay: NCI tumour cell line growth inhibition, 48 h

molecule | measurement_kind | measured
O=[N+]([O-])C(/C=C(\Cl)[N+](=O)[O-])=C(N1CCCCC1)N1CCCCC1 | TGI | > 100 µM
COc1ccc(N=Nc2c(N)nn(C)c2N)cc1 | TGI | > 100 µM
COc1cc(CCNC(=O)OC(C)(C)C)c2c(c1OC)SSSSS2 | TGI | 11.7 µM
C/C(=C\C(=N\NC(=N)N)c1ccccc1)c1ccccc1 | TGI | 4.83 µM
CS(=O)(=O)O[C@H]1[C@H](O)c2ccccc2[C@@H]1N=[N+]=[N-] | TGI | > 100 µM

Which TGI value belongs to CN(C)CCOc1ccccc1NC1=C(Cl)C(=O)C(Nc2ccccc2OCCN(C)C)=C(Cl)C1=O ?
20.7 µM

For COc1ccc(NC(=O)c2ccc(NC3=C(Cl)C(=O)N(Cc4ccccc4)C3=O)cc2)c(OC)c1 then?
> 100 µM

Repeat with C/C=C(\C)C(=O)O[C@H]1C=CC(=O)O[C@H]1COC(=O)[C@H](C)O
28.3 µM

// next record O=c1[nH]c2cc([N+](=O)[O-])c(N/N=C/c3ccc(Cl)cc3Cl)c([N+](=O)[O-])c2[nH]1
> 100 µM

Try this molecule next: O=C(CSSCC(=O)OCCS(=O)(=O)Nc1ccc(Br)cc1)OCCS(=O)(=O)Nc1ccc(Br)cc1
45.2 µM

One more molecule: CCCCC1(O)CC2CC1C(C)C2(C)C (stereo not given)
> 100 µM

Now this one: COc1ccc2c(c1)CCCc1c-2nc2ccccc2c1N
26.8 µM

Then this molecule: COc1ccc(-c2[nH]nc(N)c2-c2cc(OC)c(OC)c(OC)c2)cc1
> 100 µM

Do the same for Cc1ccc(C2=Nc3ccccc3S(=O)C(c3ccc4c(c3)OCO4)C2)cc1 (stereo not given) please
46.9 µM

Moving on to C#CCOCn1cc(C)c(=O)[nH]c1=O
> 100 µM

How about this molecule: CCC1(c2ccc(N)cc2)CCC(=O)NC1=O (stereo not given)
> 5000 µM

Note, next up: CC1=CC(=O)N(n2c(-c3ccccc3)n[nH]c2=O)C1=O
> 100 µM

Again, but for COP(=O)(OC)[C@H](O)[C@H]1C[C@@H]1c1ccccc1
> 100 µM

Please answer likewise for CN(/N=C\c1ccnc2ccccc12)c1ccccc1
> 100 µM

What about this molecule? NC(CCCCNCc1ccccc1)C(=O)O (stereo not given)
> 100 µM

And then [Cu+2].[NH-]C(CC(=O)O)C(=O)O.[NH-]C(CC(=O)O)C(=O)O (stereo not given) , what is it?
> 100 µM

Another molecule: Cn1c(=O)ccc2c(=O)c3ccccc3oc21
> 100 µM

Similarly, O=C(Nc1cccc(C(=O)NCCCO)c1)/C(=C/c1ccccc1)NC(=O)c1ccccc1 ?
> 100 µM

Same question for CCCCCCCCCCCCCCCCCC(=O)OCC1OC(OC)C(NC(=O)N(CCCl)N=O)C(O)C1O (stereo not given) please.
> 100 µM

Repeat with NC(N)=Nc1ccc(/C=C2\C=Cc3ccccc32)cc1
5.67 µM
